Attribution: patent US9598424B2

Below, each entry is listed with its recorded log10 of EC50.
# target desc: TBK1 (Homo sapiens, UniProt Q9UHD2)
# Construct: host or cells: RA1-ISRE beta-lactamase reporter cells
# Sequence (Q9UHD2 whole entry): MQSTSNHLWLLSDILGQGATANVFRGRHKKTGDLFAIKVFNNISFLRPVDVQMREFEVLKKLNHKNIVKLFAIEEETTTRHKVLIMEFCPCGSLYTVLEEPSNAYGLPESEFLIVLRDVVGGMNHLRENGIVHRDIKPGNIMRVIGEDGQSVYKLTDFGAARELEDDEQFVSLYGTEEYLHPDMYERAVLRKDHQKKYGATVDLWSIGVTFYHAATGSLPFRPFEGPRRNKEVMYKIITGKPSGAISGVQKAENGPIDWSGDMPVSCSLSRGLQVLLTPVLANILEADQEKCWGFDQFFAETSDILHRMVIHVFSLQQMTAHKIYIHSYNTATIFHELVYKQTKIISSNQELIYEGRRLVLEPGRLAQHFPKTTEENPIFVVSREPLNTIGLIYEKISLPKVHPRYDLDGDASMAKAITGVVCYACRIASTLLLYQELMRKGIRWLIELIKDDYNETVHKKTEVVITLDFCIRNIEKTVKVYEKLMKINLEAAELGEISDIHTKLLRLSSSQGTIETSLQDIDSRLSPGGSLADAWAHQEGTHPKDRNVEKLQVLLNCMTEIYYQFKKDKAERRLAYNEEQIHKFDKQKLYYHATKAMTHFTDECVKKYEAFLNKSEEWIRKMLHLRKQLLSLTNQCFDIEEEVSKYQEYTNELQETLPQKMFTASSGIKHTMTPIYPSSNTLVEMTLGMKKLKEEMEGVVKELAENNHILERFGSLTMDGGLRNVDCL
# method summary: Inhibition of TBK1 in Cells (TLR3 driven ISRE β-lactamase reporter assay)
# Type: cell-based
# test context: poly IC-LMW stimulation 16 hrs; -log(EC50), EC50 molar; read-out: Inhibition of TBK1 in cells pEC50 (EC) (converted)
readout type: log10 of EC50 (log10 of the value in µM)

INSERT INTO assay_data (compound, readout_type, measured_value) VALUES
  ('O=C(NCC(F)(F)F)c1nc(-c2ccc3nc(NC(=O)C4CC4)cn3n2)cs1', 'log10 of EC50', 0.53),
  ('O=C(Nc1cn2cc(-c3csc(C(=O)N4CCC[C@@H]4C(F)(F)F)c3)ccc2n1)C1CC1', 'log10 of EC50', -1.13),
  ('O=C(N[C@H]1COC[C@H]1O)c1nc(-c2ccc3nc(NC(=O)C4CC4)cn3c2)cs1', 'log10 of EC50', 0.64),
  ('O=C(Nc1cn2cc(-c3csc(C(=O)N4CCCC4CO)n3)ccc2n1)C1CC1 (stereo not drawn)', 'log10 of EC50', 0.21),
  ('O=C(Nc1cn2cc(-c3cc(C(=O)N4CCC(F)C4)[nH]n3)ccc2n1)C1CC1 (stereo not drawn)', 'log10 of EC50', 0.44),
  ('CC(NC(=O)c1cc(-c2ccc3nc(NC(=O)C4CC4)cn3c2)cs1)C(F)(F)F (stereo not drawn)', 'log10 of EC50', -0.62),
  ('CC(F)(F)CNC(=O)c1cn(-c2ccc3nc(NC(=O)C4CC4)cn3c2)cn1', 'log10 of EC50', 0.71),
  ('C[C@@H](NC(=O)c1nc(-c2ccc3nc(NC(=O)C4CC4)cn3c2)c[nH]1)C(F)(F)F', 'log10 of EC50', -0.64),
  ('O=C(NC1CCCOC1)c1cc(-c2ccc3nc(NC(=O)C4CC4)cn3c2)cs1 (stereo not drawn)', 'log10 of EC50', 0.07),
  ('O=C(NCC(F)F)c1nc(-c2cn3cc(NC(=O)C4CC4)nc3cn2)cs1', 'log10 of EC50', -0.10),
  ('CC(=O)Nc1cn2cc(-c3csc(C(=O)NCC(F)(F)F)c3)ccc2n1', 'log10 of EC50', -0.09),
  ('O=C(N[C@@H]1CCCOC1)c1cc(-c2ccc3nc(NC(=O)C4CC4)cn3c2)cs1', 'log10 of EC50', 0.46);

###

# target desc: Full length human TBK1 (Homo sapiens)
# Construct: Full length human TBK1 with an N-terminal His-tag; His-tag (N); made in house; host or cells: Sf9 insect cells (baculovirus, pFastBac1)
# Sequence (Q9UHD2 whole entry): as above
# method summary: Inhibition of TBK1 Enzyme (Caliper microfluidic assay)
# Type: biochemical
# test context: 25 μM ATP, 60 min at RT; -log(IC50), IC50 molar; read-out: TBK1 Inhibition (pIC50) (converted)
readout type: IC50 (nM)

INSERT INTO results (compound, target_desc, measured_value) VALUES
  ('O=C(NC1(C(F)(F)F)CC1)c1cc(-c2ccc3nc(NC(=O)C4CC4)cn3c2)cs1', 'Full length human TBK1 (Homo sapiens)', 31.6),
  ('CC(NC(=O)c1nc(-c2ccc3nc(NC(=O)C4CC4)cn3c2)c[nH]1)C(F)(F)F (stereo not shown)', 'Full length human TBK1 (Homo sapiens)', 25.1),
  ('O=C(NCC(F)(F)F)c1cc(-c2ccc3nc(NC(=O)C4CC4)cn3c2)cs1', 'Full length human TBK1 (Homo sapiens)', 5.01),
  ('O=C(NCC(F)F)c1ccn(-c2cn3cc(NC(=O)C4CC4)nc3cn2)n1', 'Full length human TBK1 (Homo sapiens)', 25.1),
  ('Cc1c(-c2ccc3nc(NC(=O)C4CC4)cn3c2)n[nH]c1C(=O)NCC(F)(F)F', 'Full length human TBK1 (Homo sapiens)', 79.4),
  ('N#CCC(=O)Nc1cn2cc(-c3csc(C(=O)NCC(F)(F)F)c3)ccc2n1', 'Full length human TBK1 (Homo sapiens)', 79.4),
  ('O=C(N[C@H]1COC[C@H]1O)c1nc(-c2ccc3nc(NC(=O)C4CC4)cn3c2)cs1', 'Full length human TBK1 (Homo sapiens)', 79.4),
  ('O=C(NC1CCOCC1)c1cc(-c2ccc3nc(NC(=O)C4CC4)cn3c2)cs1', 'Full length human TBK1 (Homo sapiens)', 100),
  ('O=C(NC1CCOC1)c1cc(-c2ccc3nc(NC(=O)C4CC4)cn3c2)cs1 (stereo not shown)', 'Full length human TBK1 (Homo sapiens)', 31.6),
  ('O=C(Nc1cn2cc(-c3cc(C(=O)N4CCC(F)CC4)[nH]n3)ccc2n1)C1CC1', 'Full length human TBK1 (Homo sapiens)', 316),
  ('CC(F)(F)CNC(=O)c1nc(-c2ccc3nc(NC(=O)C4CC4)cn3c2)c[nH]1', 'Full length human TBK1 (Homo sapiens)', 63.1),
  ('O=C(NCC(F)F)c1cc(-c2ccc3nc(NC(=O)C4CC4)cn3c2)n[nH]1', 'Full length human TBK1 (Homo sapiens)', 31.6),
  ('O=C(NCC(F)(F)F)c1cc(-c2ccc3nc(NC(=O)C4CC4)cn3c2)[nH]n1', 'Full length human TBK1 (Homo sapiens)', 7.94),
  ('COC1CCN(C(=O)c2nc(-c3ccc4nc(NC(=O)C5CC5)cn4c3)cs2)C1 (stereo not shown)', 'Full length human TBK1 (Homo sapiens)', 126),
  ('C[C@H](NC(=O)c1nc(-c2ccc3nc(NC(=O)C4CC4)cn3c2)c[nH]1)C(F)(F)F', 'Full length human TBK1 (Homo sapiens)', 316),
  ('O=C(Nc1cn2cc(-c3csc(C(=O)N4CCC[C@H]4C(F)(F)F)c3)ccc2n1)C1CC1', 'Full length human TBK1 (Homo sapiens)', 39.8),
  ('COCCC(=O)Nc1cn2cc(-c3csc(C(=O)NCC(F)(F)F)c3)ccc2n1', 'Full length human TBK1 (Homo sapiens)', 25.1),
  ('O=C(NCC(F)F)c1cc(-c2cn3cc(NC(=O)C4CC4)nc3cn2)cs1', 'Full length human TBK1 (Homo sapiens)', 5.01),
  ('O=C(NCCO)c1nc(-c2ccc3nc(NC(=O)C4CC4)cn3c2)cs1', 'Full length human TBK1 (Homo sapiens)', 398),
  ('O=C(Nc1cn2cc(-c3csc(C(=O)N4CCC(O)C4)n3)ccc2n1)C1CC1 (stereo not shown)', 'Full length human TBK1 (Homo sapiens)', 79.4),
  ('O=C(NCC(F)(F)F)c1ncc(-c2ccc3nc(NC(=O)C4CC4)cn3c2)s1', 'Full length human TBK1 (Homo sapiens)', 200),
  ('Cc1sc(C(=O)NCC(F)(F)F)nc1-c1ccc2nc(NC(=O)C3CC3)cn2c1', 'Full length human TBK1 (Homo sapiens)', 398),
  ('O=C(Nc1cn2cc(-c3csc(C(=O)N4CC(F)(F)C4)c3)ccc2n1)C1CC1', 'Full length human TBK1 (Homo sapiens)', 63.1),
  ('C[C@@H](NC(=O)c1cn(-c2ccc3nc(NC(=O)C4CC4)cn3c2)cn1)C(F)(F)F', 'Full length human TBK1 (Homo sapiens)', 50.1),
  ('O=C(Nc1cn2cc(-c3cc(C(=O)N4CCC(F)C4)[nH]n3)ccc2n1)C1CC1 (stereo not shown)', 'Full length human TBK1 (Homo sapiens)', 63.1),
  ('Cc1sc(C(=O)NCC(F)(F)F)cc1-c1ccc2nc(NC(=O)C3CC3)cn2c1', 'Full length human TBK1 (Homo sapiens)', 39.8),
  ('O=C(Nc1cn2cc(-c3csc(C(=O)N(CCO)CC(F)(F)F)c3)ccc2n1)C1CC1', 'Full length human TBK1 (Homo sapiens)', 158),
  ('CC(F)(F)CNC(=O)c1cn(-c2ccc3nc(NC(=O)C4CC4)cn3c2)cn1', 'Full length human TBK1 (Homo sapiens)', 100),
  ('O=C(NCC(F)(F)F)c1nc(-c2ccc3nc(NC(=O)C4CC4)cn3c2)cs1', 'Full length human TBK1 (Homo sapiens)', 5.01),
  ('O=C(Nc1cn2cc(-c3csc(C(=O)N4CC(O)C4)n3)ccc2n1)C1CC1', 'Full length human TBK1 (Homo sapiens)', 126),
  ('COCCNC(=O)c1cc(-c2ccc3nc(NC(=O)C4CC4)cn3c2)cs1', 'Full length human TBK1 (Homo sapiens)', 63.1),
  ('O=C(NCCC(F)(F)F)c1nc(-c2ccc3nc(NC(=O)C4CC4)cn3c2)cs1', 'Full length human TBK1 (Homo sapiens)', 50.1),
  ('O=C(NCC1CC1)c1cc(-c2ccc3nc(NC(=O)C4CC4)cn3c2)cs1', 'Full length human TBK1 (Homo sapiens)', 20),
  ('O=C(NCC(F)(F)F)c1cn(-c2ccc3nc(NC(=O)C4CC4)cn3c2)cn1', 'Full length human TBK1 (Homo sapiens)', 63.1);
